Measured values drawn from PubChem BioAssay (NCI) for this set.

Test system: CCRF-CEM leukemia
Assay: NCI-60 one-dose screen, 48 h
Details: 10 µM unless noted
About 83,000 compounds went through this panel and 20% of them were active in at least one assay; those are over-represented in the sample as a whole. Calls of active or inactive are those of the source. Rule for the calls: active = growth percent below 10; inactive = the rest.
Hi there, use one of these labels in your reply, thanks! active, inactive

Take a look at these entries with their results.
c1ccc(-c2ccc(-c3ccccc3)[nH]2)cc1: inactive
NC(N)=N/N=C/c1ccc(Cl)cc1: inactive
CN1C2CCC1/C(=C\c1ccc(Cl)cc1)C(=O)/C2=C/c1ccc(Cl)cc1: inactive
CCCCCCCCCCCCCCCC1=NC(C)(C)CN1C(C)C: active
CN1C(=O)N(C)C2C1NN=c1s/c(=C\c3ccc(Br)cc3)c(=O)n12 (stereo unspecified): inactive

In: Hi, sorry to bother you, what did the test record for COc1ccc(N=C2CSc3nnc(-c4cc(F)c(Cl)cc4Cl)n3N2)cc1 ?
Out: active

In: Hi, sorry to bother you, what did the test record for COc1ccc(C2=NNC(c3ccc(Oc4nc5c(c(=O)n(C)c(=O)n5C)n4C)c(OC)c3)C2)cc1 (stereo unspecified) ?
Out: inactive

In: Hi, sorry to bother you, what did the test record for O=[N+]([O-])c1ccc(SSc2ccc([N+](=O)[O-])cc2Cl)c(Cl)c1 ?
Out: inactive

In: Hi, sorry to bother you, what did the test record for O=S1(=O)NCCCN1CCNc1nccc(-c2c(-c3cccc(O)c3)nc3sccn23)n1 ?
Out: inactive

In: Hi, sorry to bother you, what did the test record for Cc1ccc([C@H]2c3[nH]c4ccccc4c3C[C@H]3C(=O)N(CCCCCCC(=O)NO)CC(=O)N23)cc1 ?
Out: inactive

In: Hi, sorry to bother you, what did the test record for S=C(Cc1ccccc1)N1CCN(c2ccccc2Cl)CC1 ?
Out: inactive

###

Tested on: M14 melanoma
Test: NCI-60 one-dose screen, 48 h
Details: 10 µM unless noted
Compounds without any hit were thinned out: in the full panel of roughly 83,000, 20% have a hit. Active and inactive are the calls of the source. The calls were made as follows: active = growth percent below 10; inactive = the rest.
Hi there, use one of these labels in your reply, thanks! Y for active, N for inactive

Take a look at these entries with their results.
NS(=O)(=O)c1ccc(CCn2c(SCC(=O)N/N=C/c3cc4ccccc4[nH]3)nc3ccccc3c2=O)cc1: N
C=C(C)[C@@H]1CC[C@]2(C(=O)O)CC[C@]3(C)[C@H](CC[C@@H]4[C@@]5(C)C[C@@H](CC#Cc6ccc(C(C)=O)s6)[C@H](O)C(C)(C)[C@@H]5CC[C@]43C)[C@@H]12: N
Oc1c(C(Nc2cccc3ccccc23)c2ccccc2)ccc2cccnc12 (stereo not given): Y
NS(=O)(=O)c1ccc(CCn2c(SCC(=O)N/N=C/c3cccnc3)nc3ccccc3c2=O)cc1: N

In: Hi, sorry to bother you, what did the test record for CCC1N=C(N)N=C(N)N1c1ccc(Cl)cc1 (stereo not given) ?
Out: N

In: Hi, sorry to bother you, what did the test record for CC1CCCN(CCCCOc2ccc(-c3ccc(C#N)cc3)cc2)C1 (stereo not given) ?
Out: N

In: Hi, sorry to bother you, what did the test record for COC(=O)[C@H](Cc1cn(C)cn1)NC(=O)[C@H](CC(C)C)NC(=O)Nc1cc(C(F)(F)F)cc(C(F)(F)F)c1 ?
Out: Y

In: Hi, sorry to bother you, what did the test record for O=C1CCCN1C(O)CCN(Cc1ccccc1)Cc1ccc(Cl)cc1 (stereo not given) ?
Out: N

In: Hi, sorry to bother you, what did the test record for COc1ccc(-c2nc(SCCC(C)C)nc(Nc3ccc(C(=O)O)cc3)c2C#N)cc1 ?
Out: N

In: Hi, sorry to bother you, what did the test record for CC(=O)O[C@H]1CC[C@]2(C)[C@H]3CC=C4[C@@H]5CC(C)(C)CC[C@]5(C(=O)OCC(COC(=O)C(Cl)Cl)(COC(=O)C(Cl)Cl)NC(=O)C(Cl)Cl)CC[C@@]4(C)[C@]3(C)CC[C@H]2C1(C)C ?
Out: N
